- SYSTEM: butyrylcholinesterase (BuChE) (Homo sapiens)
- TEST_SUMMARY: biochemical
Parameter IC50: see the listing below.
Give just the numeric value; µM need not be written.

Please review the following examples before continuing.
INSERT INTO assay_data (chemical_string, units_of_measure, number) VALUES
  ('O=[N+]([O-])c1cccc(-c2csc(NNS(=O)(=O)c3cccc([N+](=O)[O-])c3)n2)c1', 'µM', 3.8),
  ('O=[N+]([O-])c1ccc([N+](=O)[O-])c(S(=O)(=O)NNc2nc(-c3ccc(-c4ccccc4)cc3)cs2)c1', 'µM', 4.3),
  ('Cc1ccc([N+](=O)[O-])cc1S(=O)(=O)NNc1nc(-c2cccc([N+](=O)[O-])c2)cs1', 'µM', 6.1);

Now let's try a different one.
Given the molecule O=[N+]([O-])c1ccc(S(=O)(=O)NNc2nc(-c3cccc([N+](=O)[O-])c3)cs2)cc1 and test system butyrylcholinesterase (BuChE) (Homo sapiens), the measured IC50 is 5.5

---

- SYSTEM: butyrylcholinesterase (BuChE) (Homo sapiens, UniProt P06276)
- Sequence (P06276 29-602): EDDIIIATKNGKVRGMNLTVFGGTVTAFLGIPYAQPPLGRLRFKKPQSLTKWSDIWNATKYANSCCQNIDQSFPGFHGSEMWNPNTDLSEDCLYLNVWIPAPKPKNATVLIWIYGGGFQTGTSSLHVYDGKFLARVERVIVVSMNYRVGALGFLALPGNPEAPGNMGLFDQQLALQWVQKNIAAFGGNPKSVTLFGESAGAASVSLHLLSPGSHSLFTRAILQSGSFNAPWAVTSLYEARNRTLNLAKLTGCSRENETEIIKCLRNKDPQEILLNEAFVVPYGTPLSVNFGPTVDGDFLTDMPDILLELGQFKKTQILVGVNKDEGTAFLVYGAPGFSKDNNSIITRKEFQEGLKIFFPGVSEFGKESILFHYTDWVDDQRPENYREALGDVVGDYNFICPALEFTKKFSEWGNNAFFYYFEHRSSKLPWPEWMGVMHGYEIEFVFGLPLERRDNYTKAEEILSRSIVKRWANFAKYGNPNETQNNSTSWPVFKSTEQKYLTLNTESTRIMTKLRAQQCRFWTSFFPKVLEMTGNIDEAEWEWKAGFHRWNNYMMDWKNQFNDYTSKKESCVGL
- TEST_SUMMARY: biochemical
- DETAILS: Ellman method, pH 7.7, 37 °C, triplicate, ± SEM; read-out: BuChE IC50
ASSAY_ENDPOINT: IC50

INSERT INTO measurements (molecule, result) VALUES
  ('Cc1ccc([N+](=O)[O-])cc1S(=O)(=O)NNc1nc(-c2ccc(Cl)cc2)cs1 [analog 11]', '4400 nM'),
  ('O=S(=O)(NNc1nc(-c2ccc(Cl)c(Cl)c2)cs1)c1ccc(Cl)cc1 [analog 15]', '900 nM'),
  ('O=[N+]([O-])c1cccc(S(=O)(=O)NNc2nc(-c3ccc(Cl)cc3)cs2)c1 [analog 14]', '2700 nM');

Short answer for Cc1ccc([N+](=O)[O-])cc1S(=O)(=O)NNc1nc(-c2ccc(-c3ccccc3)cc2)cs1 [analog 16] : IC50 was 300 nM

Short answer for O=[N+]([O-])c1ccc(S(=O)(=O)NNc2nc(-c3ccccc3)cs2)cc1 [analog 6] : IC50 was 14300 nM

Short answer for O=[N+]([O-])c1cccc(-c2csc(NNS(=O)(=O)c3ccc(Cl)cc3)n2)c1 [analog 2] : IC50 was 2700 nM

Short answer for Cc1ccc([N+](=O)[O-])cc1S(=O)(=O)NNc1nc(-c2ccc(Cl)c(Cl)c2)cs1 [analog 10] : IC50 was 600 nM

Short answer for O=S(=O)(NNc1nc(-c2ccc(-c3ccccc3)cc2)cs1)c1ccc(Cl)cc1 [analog 8] : IC50 was 9200 nM

---

- SYSTEM: acetylcholinesterase (AChE) (Homo sapiens)
- Sequence (P22303 32-614, species assumed): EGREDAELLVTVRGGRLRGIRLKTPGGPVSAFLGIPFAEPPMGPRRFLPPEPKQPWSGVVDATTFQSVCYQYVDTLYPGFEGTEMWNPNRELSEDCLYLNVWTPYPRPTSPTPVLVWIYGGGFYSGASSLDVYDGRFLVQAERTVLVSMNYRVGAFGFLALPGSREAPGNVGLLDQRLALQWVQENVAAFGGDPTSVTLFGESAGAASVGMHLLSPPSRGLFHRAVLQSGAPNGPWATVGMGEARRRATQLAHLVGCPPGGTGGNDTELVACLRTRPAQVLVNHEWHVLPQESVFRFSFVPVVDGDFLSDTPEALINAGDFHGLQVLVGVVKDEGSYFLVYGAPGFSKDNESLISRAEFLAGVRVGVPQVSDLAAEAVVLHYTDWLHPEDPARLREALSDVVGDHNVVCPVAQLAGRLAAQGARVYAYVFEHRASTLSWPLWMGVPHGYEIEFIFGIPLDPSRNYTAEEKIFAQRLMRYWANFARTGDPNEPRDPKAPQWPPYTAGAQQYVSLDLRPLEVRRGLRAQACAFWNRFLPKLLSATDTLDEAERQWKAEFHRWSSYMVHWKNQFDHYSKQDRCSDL
- TEST_SUMMARY: biochemical
- DETAILS: Ellman method, pH 7.7, 37 °C, triplicate, ± SEM; read-out: AchE IC50
Threshold 3000 nM. IC50 below it: class 1. IC50 at it or above: class 0.

Query: Below 3000 nM on IC50? Entry O=S(=O)(NNc1nc(-c2ccc(Cl)cc2)cs1)c1ccc(Cl)cc1
Result: class 1

Query: Below 3000 nM on IC50? Entry O=[N+]([O-])c1cccc(S(=O)(=O)NNc2nc(-c3ccc(Cl)c(Cl)c3)cs2)c1
Result: class 1

Query: Below 3000 nM on IC50? Entry O=S(=O)(NNc1nc(-c2ccc(-c3ccccc3)cc2)cs1)c1ccc(Cl)cc1
Result: class 0

// provenance: paper PMC9860845
